Test: Cytotoxicity (Huh-7)
Assay type: cell-based
Conditions: human, Huh-7 cells
Would you kindly list CC50 for each of these compounds?
Answers are plain numbers, in µM.

Some entries whose results are on file:
compound	measured_number
COC(=O)N[C@H](C(=O)N1CCC[C@H]1c1nc(-c2cccc(Oc3ccc(-c4cnc([C@@H]5CCCN5C(=O)[C@@H](NC(=O)OC)C(C)C)[nH]4)cc3)c2)c[nH]1)C(C)C	18.6
CC(C)[C@@H](C(=O)N1CCC[C@H]1c1nc(-c2cccc(Oc3ccc(-c4cnc([C@@H]5CCCN5C(=O)[C@H](C(C)C)N(C)C)[nH]4)cc3)c2)c[nH]1)N(C)C	2.87

Now take the following compound into account.
// field: CC50; key: O=C(C(O)c1ccccc1)N1CCC[C@H]1c1nc(-c2cccc(Oc3ccc(-c4cnc([C@@H]5CCCN5C(=O)C(O)c5ccccc5)[nH]4)cc3)c2)c[nH]1 (stereo partly shown) ; value = 4.86

---

Assay: Cytotoxicity (Huh-7)
Type: cell-based
Conditions: human, Huh-7 cells
From the text: The in vitro antiviral activity against HCV of the compounds of formula I can be tested in a cellular HCV replicon system based on Lohmann et al. (1999) Science 285:110-113, with the further modifications described by Krieger et al. (2001) Journal of Virology 75: 4614-4624 (incorporated herein by reference), which is further exemplified in the examples section. […]
parameter_measured: CC50

Some entries whose results are on file:
compound	CC50
O=C(CCc1ccccc1F)N1CCC[C@H]1c1nc(-c2cccc(Oc3ccc(-c4cnc([C@@H]5CCCN5C(=O)CCc5ccccc5F)[nH]4)cc3)c2)c[nH]1 [Example 26]	> 31.5 µM
O=C([C@H]1CCCO1)N1CCC[C@H]1c1nc(-c2cccc(Oc3ccc(-c4cnc([C@@H]5CCCN5C(=O)[C@H]5CCCO5)[nH]4)cc3)c2)c[nH]1 [Example 22]	> 31.5 µM

For every record below, what is its CC50?
1. CCN(CC)[C@@H](C(=O)N1CCC[C@H]1c1nc(-c2cccc(Oc3ccc(-c4cnc([C@@H]5CCCN5C(=O)[C@@H](c5ccccc5)N(CC)CC)[nH]4)cc3)c2)c[nH]1)c1ccccc1 [Example 44]
2. O=C(Cc1ccccc1)N1CCC[C@H]1c1nc(-c2cccc(Oc3ccc(-c4cnc([C@@H]5CCCN5C(=O)Cc5ccccc5)[nH]4)cc3)c2)c[nH]1 [Example 9]

Reply |
1: 0.78 µM; 2: > 31.5 µM

For every record below, what is its CC50?
1. CN(C)C(C(=O)N1CCC[C@H]1c1nc(-c2cccc(Oc3ccc(-c4cnc([C@@H]5CCCN5C(=O)C(c5ccc(Cl)cc5)N(C)C)[nH]4)cc3)c2)c[nH]1)c1ccc(Cl)cc1 (stereo partly drawn) [Example 30]
2. O=C(c1cccnc1)N1CCC[C@H]1c1nc(-c2cccc(Oc3ccc(-c4cnc([C@@H]5CCCN5C(=O)c5cccnc5)[nH]4)cc3)c2)c[nH]1 [Example 38]
3. O=C(C(c1ccccc1)n1ccnc1)N1CCC[C@H]1c1nc(-c2cccc(Oc3ccc(-c4cnc([C@@H]5CCCN5C(=O)C(c5ccccc5)n5ccnc5)[nH]4)cc3)c2)c[nH]1 (stereo partly drawn) [Example 35]
4. O=C(Cc1cccnc1)N1CCC[C@H]1c1nc(-c2cccc(Oc3ccc(-c4cnc([C@@H]5CCCN5C(=O)Cc5cccnc5)[nH]4)cc3)c2)c[nH]1 [Example 18]
5. O=C(Cc1ccc2c(c1)OCO2)N1CCC[C@H]1c1nc(-c2cccc(Oc3ccc(-c4cnc([C@@H]5CCCN5C(=O)Cc5ccc6c(c5)OCO6)[nH]4)cc3)c2)c[nH]1 [Example 19]
6. COc1cccc(CCC(=O)N2CCC[C@H]2c2nc(-c3cccc(Oc4ccc(-c5cnc([C@@H]6CCCN6C(=O)CCc6cccc(OC)c6)[nH]5)cc4)c3)c[nH]2)c1 [Example 27]
7. CN(C)[C@@H](C(=O)N1CCC[C@H]1c1ncc(-c2ccc(Oc3cccc(-c4cnc([C@@H]5CCCN5C(=O)[C@@H](c5ccccc5)N(C)C)[nH]4)c3)cc2)[nH]1)c1ccccc1 [Example 43]
8. COc1c(F)cc(CC(=O)N2CCC[C@H]2c2nc(-c3cccc(Oc4ccc(-c5cnc([C@@H]6CCCN6C(=O)Cc6cc(F)c(OC)c(F)c6)[nH]5)cc4)c3)c[nH]2)cc1F [Example 25]

Reply |
1: 4.6 µM; 2: > 31.5 µM; 3: > 31.5 µM; 4: > 31.5 µM; 5: > 31.5 µM; 6: > 31.5 µM; 7: 0.7 µM; 8: > 31.5 µM

For every record below, what is its CC50?
1. O=C(CCc1cccnc1)N1CCC[C@H]1c1nc(-c2cccc(Oc3ccc(-c4cnc([C@@H]5CCCN5C(=O)CCc5cccnc5)[nH]4)cc3)c2)c[nH]1 [Example 29]
2. O=C(c1ccoc1)N1CCC[C@H]1c1nc(-c2cccc(Oc3ccc(-c4cnc([C@@H]5CCCN5C(=O)c5ccoc5)[nH]4)cc3)c2)c[nH]1 [Example 32]
3. O=C(Cc1ccccc1OC(F)(F)F)N1CCC[C@H]1c1nc(-c2cccc(Oc3ccc(-c4cnc([C@@H]5CCCN5C(=O)Cc5ccccc5OC(F)(F)F)[nH]4)cc3)c2)c[nH]1 [Example 24]
4. CC(C)C[C@@H](C(=O)N1CCC[C@H]1c1nc(-c2cccc(Oc3ccc(-c4cnc([C@@H]5CCCN5C(=O)[C@H](CC(C)C)N(C)C)[nH]4)cc3)c2)c[nH]1)N(C)C [Example 36]
5. O=C(Cc1ccccc1)N1CCC[C@H]1c1ncc(-c2ccc(Oc3ccc(-c4cnc([C@@H]5CCCN5C(=O)Cc5ccccc5)[nH]4)cc3)cc2)[nH]1 [Example 49]

Reply |
> 31.5 µM
> 31.5 µM
> 31.5 µM
7.76 µM
> 31.5 µM

---

Would you kindly list pEC50 for each of these compounds?
Tested on: HCV replicon
Test: HCV replicon assay (Huh-Luc cells, luciferase read-out)
Assay type: cell-based, HCV type Ib
Details: Hepatitis C virus, 72 h, three days incubation, luciferase activity
Numbers only, as −log10 of the molar value.

compound	target_of_assay	pEC50
CCN(CC)[C@@H](C(=O)N1CCC[C@H]1c1nc(-c2cccc(Oc3ccc(-c4cnc([C@@H]5CCCN5C(=O)[C@@H](c5ccccc5)N(CC)CC)[nH]4)cc3)c2)c[nH]1)c1ccccc1	HCV replicon	9.92
O=C(c1ccoc1)N1CCC[C@H]1c1nc(-c2cccc(Oc3ccc(-c4cnc([C@@H]5CCCN5C(=O)c5ccoc5)[nH]4)cc3)c2)c[nH]1	HCV replicon	6.01
CN(C)[C@@H](C(=O)N1CCC[C@H]1c1ncc(-c2ccc(Oc3cccc(-c4cnc([C@@H]5CCCN5C(=O)[C@@H](c5ccccc5)N(C)C)[nH]4)c3)cc2)[nH]1)c1ccccc1	HCV replicon	9.94

For every record below, what is its pEC50?
1. COC(=O)N[C@H](C(=O)N1CCC[C@H]1c1nc(-c2ccc(Oc3ccc(OC)c(-c4c[nH]c([C@@H]5CCCN5C(=O)[C@@H](NC(=O)OC)C(C)C)n4)c3)cc2)c[nH]1)C(C)C
2. COC(=O)N[C@H](C(=O)N1CCC[C@H]1c1ncc(-c2ccc(Oc3cccc(-c4cnc([C@@H]5CCCN5C(=O)[C@@H](NC(=O)OC)C(C)(C)C)[nH]4)c3)cc2)[nH]1)C(C)(C)C
3. O=C(C(c1ccccc1)n1ccnc1)N1CCC[C@H]1c1nc(-c2cccc(Oc3ccc(-c4cnc([C@@H]5CCCN5C(=O)C(c5ccccc5)n5ccnc5)[nH]4)cc3)c2)c[nH]1 (stereo partly shown)
4. O=C(Cc1ccc2c(c1)OCO2)N1CCC[C@H]1c1nc(-c2cccc(Oc3ccc(-c4cnc([C@@H]5CCCN5C(=O)Cc5ccc6c(c5)OCO6)[nH]4)cc3)c2)c[nH]1

Reply |
7.20
9.78
8.33
5.97

For every record below, what is its pEC50?
1. O=C(c1ccccn1)N1CCC[C@H]1c1nc(-c2cccc(Oc3ccc(-c4cnc([C@@H]5CCCN5C(=O)c5ccccn5)[nH]4)cc3)c2)c[nH]1
2. Cc1nc(C(=O)N2CCC[C@H]2c2nc(-c3cccc(Oc4ccc(-c5cnc([C@@H]6CCCN6C(=O)c6nc(C)oc6C)[nH]5)cc4)c3)c[nH]2)c(C)o1

Reply |
[4.81, 6.06]

---

System: HCV replicon
Assay: HCV replicon assay (Huh-Luc cells, luciferase read-out)
Type: cell-based, HCV type Ib
Conditions: Hepatitis C virus, 72 h, three days incubation, luciferase activity
Flag rule - EC50 less than 80 nM flags 1 (yes); the remaining entries get 0 (no).

Example cases with answers are listed next.
compound	category_label
O=C(Cc1ccccc1OC(F)(F)F)N1CCC[C@H]1c1nc(-c2cccc(Oc3ccc(-c4cnc([C@@H]5CCCN5C(=O)Cc5ccccc5OC(F)(F)F)[nH]4)cc3)c2)c[nH]1 [Example 24]	1 (yes)
O=C([C@H]1CCCO1)N1CCC[C@H]1c1nc(-c2cccc(Oc3ccc(-c4cnc([C@@H]5CCCN5C(=O)[C@H]5CCCO5)[nH]4)cc3)c2)c[nH]1 [Example 22]	0 (no)
O=C(CCS(=O)(=O)c1ccccc1)N1CCC[C@H]1c1nc(-c2cccc(Oc3ccc(-c4cnc([C@@H]5CCCN5C(=O)CCS(=O)(=O)c5ccccc5)[nH]4)cc3)c2)c[nH]1 [Example 21]	0 (no)
O=C(Cc1ccccc1)N1CCC[C@H]1c1nc(-c2cccc(Oc3ccc(-c4cnc([C@@H]5CCCN5C(=O)Cc5ccccc5)[nH]4)cc3)c2)c[nH]1 [Example 9]	1 (yes)
CN(C)C(C(=O)N1CCC[C@H]1c1nc(-c2cccc(Oc3ccc(-c4cnc([C@@H]5CCCN5C(=O)C(c5ccc(Cl)cc5)N(C)C)[nH]4)cc3)c2)c[nH]1)c1ccc(Cl)cc1 (stereo partly shown) [Example 30]	1 (yes)
O=C(CC1CCCCC1)N1CCC[C@H]1c1nc(-c2cccc(Oc3ccc(-c4cnc([C@@H]5CCCN5C(=O)CC5CCCCC5)[nH]4)cc3)c2)c[nH]1 [Example 28]	0 (no)

Moving on to the next compound.
Ask | Identify whether the compound O=C(Cc1cccnc1)N1CCC[C@H]1c1nc(-c2cccc(Oc3ccc(-c4cnc([C@@H]5CCCN5C(=O)Cc5cccnc5)[nH]4)cc3)c2)c[nH]1 [Example 18] records EC50 below 80 nM.
Reply | 1 (yes)
